Target: human ferroportin (Homo sapiens, UniProt Q9NP59)
Type: cell-based
Settings: Hepcidin analog peptides; read-out: Potency EC50
For each entry below, report its EC50 value.
// return numeric value only (unit: nM, not printed)

Dear colleague, I am looking for the recorded EC50 of the following substance: H-VDTHFPCIKFGPRSKGWVCK-NH2 (cysteine pairing not given here) [Compound 164]
146

Requested read-out: EC50. Entry: H-DTAFPCIIF-NH2 [Compound 283]
739

For H-DTHFAICIFGPRSKGWVCM-NH2 (cysteine pairing not given here) [Compound 26] , what is its reported EC50?
147

# lookup: EC50 of H-DTHFPICIFGPRAKGWVCM-NH2 (cysteine pairing not given here) [Compound 28]
88

I have this substance here, H-DTHFPICIFAPRSKGWVCM-NH2 (cysteine pairing not given here) [Compound 22] , and I need its recorded EC50.
9430

I have this substance here, H-DTHFPCIKFGPRSKGWVCM-NH2 (cysteine pairing not given here) [Compound 136] , and I need its recorded EC50.
669

Field request: EC50 | item: H-DTHFPICIFGPRSKAWVCM-NH2 (cysteine pairing not given here) [Compound 31]
175

What value of measured EC50 is listed for H-DTHFPICIFGPRSKGWACM-NH2 (cysteine pairing not given here) [Compound 47] ?
313

Reported EC50, substance H-DTHFPCIFF-NH2 [Compound 56] : ____
441

Item H-DTHFPICIFGPRSKGAVCM-NH2 (cysteine pairing not given here) [Compound 66] has what recorded EC50?
520

Return reported EC50; argument: H-DTHFPCIYFGPRSKGWVCK-NH2 (cysteine pairing not given here) [Compound 85]
705

# lookup: EC50 of H-DTHFPICIFGPHRSKGWVCM-NH2 (cysteine pairing not given here) [Compound 27]
149

Can you look up the measured EC50 of H-DTHAPICIFGPRSKGWVCM-NH2 (cysteine pairing not given here) [Compound 38] for me?
254

Name the reported EC50 value associated with the substance H-DTHFPICIFGPRAKGWVCM-NH2 (cysteine pairing not given here) [Compound 16]
88

I am curious: what EC50 value has been reported for H-DAHFPCIIF-NH2 [Compound 52] ?
388

Reported EC50, substance H-EDTHFPCIIFGPRSKGWVCM-NH2 (cysteine pairing not given here) [Compound 137] : ____
873

Which EC50 reading was recorded for the substance H-DTHFPICIFGPRSKGWVCM-NH2 (cysteine pairing not given here) [Compound 18] ?
125

Given the substance H-DTHFPICIFGPASKGWVCM-NH2 (cysteine pairing not given here) [Compound 34] , what is its reported EC50?
206

I have this substance here, H-DTHFPCISFGPRSKGWVCM-NH2 (cysteine pairing not given here) [Compound 135] , and I need its recorded EC50.
545

Please report the recorded EC50 for H-DTHFPCIIFGPRSKGWVCM-NH2 (cysteine pairing not given here) [Compound 21] .
46

What value of measured EC50 is listed for H-ATHFPICIFGPRSKGWVCM-NH2 (cysteine pairing not given here) [Compound 33] ?
184

###

Molecular target: human ferroportin (Homo sapiens, UniProt Q9NP59)
Format: cell-based
Details: read-out: EC50 (nM) (n > 3); alanine scan of Compound 18
Endpoint: EC50 (nM)
Record the value in nM, omitting the unit from your answer.

Param item = H-DTHFPICIFGPASKGWVCM-NH2 (cysteine pairing not given here) [Compound 34] ; retrieve measured EC50.
206

Return reported EC50; argument: H-DTHFPICIFGPRSKGWVCM-NH2 (cysteine pairing not given here) [Compound 18]
125

Find the recorded EC50 belonging to H-DTHFPICIFAPRSKGWVCM-NH2 (cysteine pairing not given here) [Compound 22] and report it.
9430

Item H-DTHAPICIFGPRSKGWVCM-NH2 (cysteine pairing not given here) [Compound 38] has what recorded EC50?
254

Any idea what its EC50 is? The substance is H-DTAFPICIFGPRSKGWVCM-NH2 (cysteine pairing not given here) [Compound 60]
498

Entry H-ATHFPICIFGPRSKGWVCM-NH2 (cysteine pairing not given here) [Compound 33] has what EC50?
184

Name the reported EC50 value associated with the substance H-DTHFAICIFGPRSKGWVCM-NH2 (cysteine pairing not given here) [Compound 26]
147

Return reported EC50; argument: H-DTHFPICIFGPRAKGWVCM-NH2 (cysteine pairing not given here) [Compound 16]
88

Requested read-out: EC50. Entry: H-DTHFPICIFGPRSKGAVCM-NH2 (cysteine pairing not given here) [Compound 66]
520

Requested read-out: EC50. Entry: H-DTHFPICIFGPRSKAWVCM-NH2 (cysteine pairing not given here) [Compound 31]
175

Reported EC50, substance H-DTHFPICIFGPRSKGWACM-NH2 (cysteine pairing not given here) [Compound 47] : ____
313

Would you kindly share the measured EC50 for H-DTHFPICIAGPRSKGWVCM-NH2 (cysteine pairing not given here) [Compound 67] ?
2470

###

Target: human ferroportin (Homo sapiens)
Format: cell-based
Settings: at 1 uM peptide; monomers and disulphide-linked dimers
Excerpt: The cDNA encoding the human ferroportin (SLC40A1) was cloned from a cDNA clone from Origene (NM_014585). The DNA encoding the ferroportin was amplified by PCR using primers also encoding terminal restriction sites for subcloning, but without the termination codon. The ferroportin receptor was subcloned into a mammalian GFP expression vector containing a neomycin (G418) resistance marker in such that the reading frame of the ferroportin was fused in frame with the GFP protein. […]
Endpoint: % Activity At 1 uM (%)
Answer with a number only, understood to be in %.

Returns the measured % Activity At 1 uM for the input substance. Input: H-DTHFPCIF-NH2 [Compound 293]
52

Requested read-out: % Activity At 1 uM. Entry: H-DTHFPCIVF-NH2 [Compound 307]
75

Which % Activity At 1 uM is reported for this substance? H-DTHFPCIKFF-NH2 [Compound 297]
64

Quick one: % Activity At 1 uM for H-DTKFPCIIF-NH2 [Compound 302] ?
60

Which % Activity At 1 uM is listed for Hy-DTHFPCIIF-NH2 [Compound 1] ?
92

# query: % Activity At 1 uM of entry Hy-ETHFPCIIF-NH2 [Compound 300]
77

# get_value(readout='% Activity At 1 uM', item= H-DTHFPCIIK-NH2 [Compound 304] )
55

Using the record for H-DTHFPCILF-NH2 [Compound 308] , report its % Activity At 1 uM.
89

I am curious: what % Activity At 1 uM value has been reported for Hy-LTHFPCIIF-NH2 [Compound 299] ?
64

I have this substance here, H-DTHFPCIIR-NH2 [Compound 305] , and I need its recorded % Activity At 1 uM.
62

Would you mind telling me what % Activity At 1 uM value was observed for Isovaleric acid-DTHFPCIKF-NH2 [Compound 291] ?
100

Find the recorded % Activity At 1 uM belonging to H-DTHFPCIEK-NH2 [Compound 310] and report it.
0

Could you share which % Activity At 1 uM value was measured for (Isovaleric acid-DTHFPCIKF-NH2)2 [Compound 326] ?
100

% Activity At 1 uM for Isovaleric acid-DTHFPCIIF-NH2 [Compound 288] ?
100

Recorded % Activity At 1 uM of H-DTHFPCILK-NH2 [Compound 309] , please.
55

###

Target: human ferroportin (Homo sapiens, UniProt Q9NP59)
Sequence (Q9NP59 1-571): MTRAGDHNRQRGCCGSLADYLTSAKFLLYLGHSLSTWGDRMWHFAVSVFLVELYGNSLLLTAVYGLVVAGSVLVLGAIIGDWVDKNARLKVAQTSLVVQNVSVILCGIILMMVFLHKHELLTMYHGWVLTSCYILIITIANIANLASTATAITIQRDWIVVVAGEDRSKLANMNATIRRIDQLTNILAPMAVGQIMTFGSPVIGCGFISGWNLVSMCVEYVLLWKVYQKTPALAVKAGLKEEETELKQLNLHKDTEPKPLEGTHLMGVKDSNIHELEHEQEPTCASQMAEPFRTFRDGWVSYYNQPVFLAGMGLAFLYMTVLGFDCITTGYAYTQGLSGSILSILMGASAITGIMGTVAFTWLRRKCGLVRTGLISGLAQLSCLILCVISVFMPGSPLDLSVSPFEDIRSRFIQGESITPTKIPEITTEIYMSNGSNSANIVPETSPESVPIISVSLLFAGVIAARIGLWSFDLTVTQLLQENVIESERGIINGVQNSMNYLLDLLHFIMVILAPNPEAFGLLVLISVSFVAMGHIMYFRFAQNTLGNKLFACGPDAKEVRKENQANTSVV
Format: cell-based
Conditions: Hepcidin analog peptides; read-out: Potency EC50
Endpoint: EC50 (µM)
Expressed in µM, but write only the number.

Requested read-out: EC50. Entry: H-DTHFPCIAF-NH2 [Compound 51]
0.382

I am curious: what EC50 value has been reported for H-DTHFPICIAGPRSKGWVCM-NH2 (cysteine pairing not given here) [Compound 67] ?
2.47

Fill in the blank: the reported EC50 of H-DTAFPICIFGPRSKGWVCM-NH2 (cysteine pairing not given here) [Compound 60] is ____.
0.498

Can you look up the measured EC50 of H-DTHFPCIIFK-NH2 [Compound 55] for me?
0.419

Source: patent US9822157B2
